Assay: NCI Yeast Anticancer Drug Screen. Data for the rad50 strain (AID 155);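 further: 0% = growth of vehicle-only cultures of the same strain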
Conditions: S. cerevisiae rad50 strain growth inhibition; at 50.0 µM (retest, dose inferred, filed as 5.0); hits give high values
The panel holds about 79,000 compounds, 15% with a hit somewhere; the sample as a whole holds those more often.
Parameter threshold = 60%. Response is criterion met when growth inhibition meets or exceeds it, else criterion not met.

- CCCCCCOC(=O)COc1ccccc1: criterion not met
- Cn1c2nc(-[n+]3ccc(-c4ccccc4)cc3)nc-2c([O-])n(C)c1=O: criterion not met
- COc1ccc(/C(Cl)=C(\C=O)c2ccc(Cl)cc2)cc1: criterion not met
- CN(C)Cc1cc(C(C)(C)C)cc(C2CCCCC2)c1O: criterion not met
- O=C(c1ccc(Cl)cc1)C1OC12C(=O)Nc1c(Cl)cc(Cl)cc12 (stereo unspecified): criterion met
- CCOc1ccc2nc(NC(=O)c3c/c(=N\NC(=O)C[N+](C)(C)C)c4ccc(O)cc4o3)sc2c1: criterion met

* * *

Experiment: NCI Yeast Anticancer Drug Screen. Data for the cln2 rad14 strain (AID 165);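 further: 0% = growth equal to vehicle treated cultures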
Conditions: S. cerevisiae cln2 rad14 strain, at 50.0 µM, hits give high values
About 79,000 compounds went through this panel and 15% of them were active in at least one assay; those are over-represented in the sample as a whole.
A collection of compounds and their measured growth inhibition
READOUT TYPE: growth inhibition (%)

• CC(=O)OCc1cc2c(s1)C(=O)c1sccc1C2=O = 86.2
• O=C(O)c1ccc(Br)cc1C(=O)c1ccccc1 = 11.8
• O=C(NC(OCc1ccccc1)(C(F)(F)F)C(F)(F)F)OCc1ccccc1 = 94.8
• C=CCc1cc(C(=O)OCC)cc(OC)c1O = -23.4
• CCCC(CC)c1cc(O)c(O)cc1C(CC)CCC (centres undefined) = 79.8
• CCC(CC)C(c1ccc(O)cc1)c1ccc(O)cc1 = 99.2
• O=C1C(=O)c2ccc(Br)cc2C(O)=C1C(c1ccccc1)c1ccccc1 = 14.2
• O=C1c2cccc(S(=O)(=O)O)c2C(=O)c2cccc([N+](=O)[O-])c21 = -8.35
• CN(C)CCCN=c1c2ccccc2n(O)c2ccccc12 = 24.7
• CC[C@]1(O)C[C@H]2[C@@H]3CCc4cc(OC)ccc4[C@H]3CC[C@]2(C)[C@H]1O = 68.9
• FC(F)(F)c1ccc(NC(=S)SCc2ccc3c(c2)OCO3)cc1 = 86.3
• CC(=O)OCC1OC(c2cccc3c2c2ccccc2n3S(=O)(=O)c2ccccc2)C(O)C1O (centres undefined) = 1.25
• CCCCCCCCCCCCCCCC[N+](C)(C)c1ccccc1 = 86.2
• CC(O)(CO)CC(C)(O)CO (centres undefined) = 77
• CC(C)(C)c1ccc2c(c1)C(O)(c1ccccc1)C1OC1(C(C)(C)C)C2=O (centres undefined) = 91.7
• [Fe+2].c1cc[cH-]c1.c1ccc(-c2ccc[cH-]2)cc1 = 16.9
• Nc1ccc(O)c2ccccc12 = 10.1
• Nc1cccc2c1C(=O)c1cccc(Cl)c1C2=O = -82
• O=C1c2ccccc2C(=O)[C@@]23O[C@@]12C1(Oc2cccc4cccc(c24)O1)[C@@H]1O[C@@H]1[C@@H]3O = 88.7
• Cc1ccc(C(CN)(CCBr)c2ccc(C)cc2)cc1 = 99.4
• C/C(=N/NC(N)=S)C(CN1CCOCC1)C(C1=C(O)c2ccccc2OC1)c1ccccc1 (centres undefined) = 75.4
• O=S(=O)(Nc1ccc2ccc3cccc4ccc1c2c34)c1ccccc1 = 17.6
• C=CCOc1ccccc1C(OCC)OCC = 7.75
• CCCCCCOC(=O)COc1ccccc1 = 40.8
